system: A549; test: cells; conditions: Homo sapiens, A549, 24 h
Description: Antiproliferative activity against human A549 cells after 24 hrs by MTT assay
Property Name: IC50 (µM)
Respond numerically; units are µM and should not be typed.

I would be grateful if you could share the reported IC50 for COc1ccc(-c2cc(C(=O)N/N=C/c3c(Cl)c4ccccc4oc3=O)nn2-c2ccc(S(N)(=O)=O)cc2)cc1 .
31.5

I would be grateful if you could share the reported IC50 for NS(=O)(=O)c1ccc(-n2nc(C(=O)N/N=C/c3c(Cl)c4ccccc4oc3=O)cc2-c2ccc(C(F)(F)F)cc2)cc1 .
2.56

I would be grateful if you could share the reported IC50 for COc1cccc(-c2cc(C(=O)N/N=C/c3c(Cl)c4ccccc4oc3=O)nn2-c2ccc(S(N)(=O)=O)cc2)c1 .
22.4

I would be grateful if you could share the reported IC50 for NS(=O)(=O)c1ccc(-n2nc(C(=O)N/N=C/c3c(Cl)c4ccccc4oc3=O)cc2-c2ccccc2O)cc1 .
17.2

----------
Please respond with reported pIC50 for every item in the list.
target: Prostaglandin G/H synthase 1 (Homo sapiens, UniProt P23219); experiment: Inhibition of human COX1 using arachidonic acid assessed as production of PGF2alpha after 5 mins by ELISA
Sequence (P23219 whole entry): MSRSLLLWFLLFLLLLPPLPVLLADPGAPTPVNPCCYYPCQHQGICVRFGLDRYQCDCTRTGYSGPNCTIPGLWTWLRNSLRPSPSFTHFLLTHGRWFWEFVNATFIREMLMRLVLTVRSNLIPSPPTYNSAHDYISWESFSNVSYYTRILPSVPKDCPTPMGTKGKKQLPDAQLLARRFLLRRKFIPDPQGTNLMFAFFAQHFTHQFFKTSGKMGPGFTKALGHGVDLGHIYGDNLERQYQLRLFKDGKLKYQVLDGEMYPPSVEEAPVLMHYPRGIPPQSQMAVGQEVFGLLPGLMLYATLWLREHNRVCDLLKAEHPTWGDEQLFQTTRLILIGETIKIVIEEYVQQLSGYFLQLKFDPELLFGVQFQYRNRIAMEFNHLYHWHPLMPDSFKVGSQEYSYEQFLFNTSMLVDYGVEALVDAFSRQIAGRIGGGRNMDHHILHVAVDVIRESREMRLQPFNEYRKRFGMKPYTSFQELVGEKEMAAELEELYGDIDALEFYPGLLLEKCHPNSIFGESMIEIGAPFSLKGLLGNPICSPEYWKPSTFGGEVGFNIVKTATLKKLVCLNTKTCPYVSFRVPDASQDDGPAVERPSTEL
For clarity, pIC50 is expressed as the negative log10 of concentration in mol/L.

I would be grateful if you could share the reported pIC50 for NS(=O)(=O)c1ccc(-n2nc(C(=O)N/N=C/c3c(Cl)c4ccccc4oc3=O)cc2-c2ccccc2Cl)cc1 .
4.06

I would be grateful if you could share the reported pIC50 for NS(=O)(=O)c1ccc(-n2nc(C(=O)N/N=C/c3c(Cl)c4ccccc4oc3=O)cc2-c2ccc(C(F)(F)F)cc2)cc1 .
4.32

I would be grateful if you could share the reported pIC50 for Cc1ccc(-c2cc(C(=O)N/N=C/c3c(Cl)c4ccccc4oc3=O)nn2-c2ccc(S(N)(=O)=O)cc2)cc1 .
4.05

I would be grateful if you could share the reported pIC50 for NS(=O)(=O)c1ccc(-n2nc(C(=O)N/N=C/c3c(Cl)c4ccccc4oc3=O)cc2-c2ccc(Cl)c(Cl)c2)cc1 .
4.02

----------
Please respond with reported IC50 for every item in the list.
biological target: Prostaglandin G/H synthase 1 (Homo sapiens); assay: Inhibition of human COX1 using arachidonic acid assessed as production of PGF2alpha after 5 mins by ELISA
Respond numerically; units are µM and should not be typed.

I would be grateful if you could share the reported IC50 for CCOc1ccc(-c2cc(C(=O)N/N=C/c3c(Cl)c4ccccc4oc3=O)nn2-c2ccc(S(N)(=O)=O)cc2)cc1 .
78.5

I would be grateful if you could share the reported IC50 for COc1ccc(-c2cc(C(=O)N/N=C/c3c(Cl)c4ccccc4oc3=O)nn2-c2ccc(S(N)(=O)=O)cc2)cc1OC .
69.3

I would be grateful if you could share the reported IC50 for NS(=O)(=O)c1ccc(-n2nc(C(=O)N/N=C/c3c(Cl)c4ccccc4oc3=O)cc2-c2ccc([N+](=O)[O-])cc2)cc1 .
42.2

I would be grateful if you could share the reported IC50 for Cc1ccc(-c2cc(C(=O)N/N=C/c3c(Cl)c4ccccc4oc3=O)nn2-c2ccc(S(N)(=O)=O)cc2)c(C)c1 .
39.5

I would be grateful if you could share the reported IC50 for COc1cc(-c2cc(C(=O)N/N=C/c3c(Cl)c4ccccc4oc3=O)nn2-c2ccc(S(N)(=O)=O)cc2)cc(OC)c1OC .
49.8

----------
Please respond with reported pIC50 for every item in the list.
experiment: cells; conditions: Homo sapiens, L02, 24 h
Description: Antiproliferative activity against human LO2 cells after 24 hrs by MTT assay
For clarity, pIC50 is expressed as the negative log10 of concentration in mol/L.

I would be grateful if you could share the reported pIC50 for Cc1ccc(-c2cc(C(=O)N/N=C/c3c(Cl)c4ccccc4oc3=O)nn2-c2ccc(S(N)(=O)=O)cc2)c(C)c1 .
3.69

I would be grateful if you could share the reported pIC50 for NS(=O)(=O)c1ccc(-n2nc(C(=O)N/N=C/c3c(Cl)c4ccccc4oc3=O)cc2-c2cccc(F)c2)cc1 .
3.69

I would be grateful if you could share the reported pIC50 for Cc1cccc(-c2cc(C(=O)N/N=C/c3c(Cl)c4ccccc4oc3=O)nn2-c2ccc(S(N)(=O)=O)cc2)c1 .
3.70

----------
Please respond with reported pIC50 for every item in the list.
tested on: A549; test: cells; conditions: Homo sapiens, A549, 24 h
For clarity, pIC50 is expressed as the negative log10 of concentration in mol/L.

Notebook: pull reported pIC50 for A549, entry Cc1cccc(-c2cc(C(=O)N/N=C/c3c(Cl)c4ccccc4oc3=O)nn2-c2ccc(S(N)(=O)=O)cc2)c1
4.69

Notebook: pull reported pIC50 for A549, entry NS(=O)(=O)c1ccc(-n2nc(C(=O)N/N=C/c3c(Cl)c4ccccc4oc3=O)cc2-c2ccc(Cl)c(Cl)c2)cc1
4.63

Notebook: pull reported pIC50 for A549, entry Cc1ccc(-c2cc(C(=O)N/N=C/c3c(Cl)c4ccccc4oc3=O)nn2-c2ccc(S(N)(=O)=O)cc2)cc1C
4.62

Notebook: pull reported pIC50 for A549, entry NS(=O)(=O)c1ccc(-n2nc(C(=O)N/N=C/c3c(Cl)c4ccccc4oc3=O)cc2-c2ccccc2)cc1
4.47

Notebook: pull reported pIC50 for A549, entry NS(=O)(=O)c1ccc(-n2nc(C(=O)N/N=C/c3c(Cl)c4ccccc4oc3=O)cc2-c2cccc(F)c2)cc1
4.79

Notebook: pull reported pIC50 for A549, entry NS(=O)(=O)c1ccc(-n2nc(C(=O)N/N=C/c3c(Cl)c4ccccc4oc3=O)cc2-c2ccccc2Cl)cc1
4.91
